# tested.target: FRMPD4, Q14CM0
# Sequence (Q14CM0 67-160): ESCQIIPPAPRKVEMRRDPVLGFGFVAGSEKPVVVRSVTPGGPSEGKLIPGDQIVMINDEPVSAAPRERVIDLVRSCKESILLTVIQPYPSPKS
# protocol.summary: holdup assay
# Set-up: key: below the threshold = too weak to quantify, mostly under pKd 3.1 to 4
# condition.summary: plain residues with an end cap or a label only (N-terminal biotin on a linker: ado-ado)
measured.parameter: pKd

> print(dat)
                                 binder               result
1            SAAKVLTSMC [GHRHR, Q02643]  below the threshold
2  KSGKQTMLVV [TRIM29, Q14134;Q14134-2]  below the threshold
3            SKSNFGSEPL [KIF17, Q9P2E2]  below the threshold
4             LGRSTPQSEV [DGKH, Q86XP1]  below the threshold

Required: pKd, one value per binder below.
1. EKKTLIGIKL [GOT1L1, Q8NHS2]
2. FNSYSLTGYV [CLDN2, P57739]
3. CLREWCDAFL [BANF1, O75531]

[4.47, "below the threshold", 4.72]

Required: pKd, one value per binder below.
1. YNNCLEILRV [DCAF7, P61962]
2. DDEDRLVIEI [ZNF831, Q5JPB2]
3. QMNQTLPVQV [EPHB3, P54753]
4. EVEEFPETSV [TRPV3, Q8NET8]
5. MLSKQSESAI [FLVCR1, Q9Y5Y0]
6. PRISRSQSEL [CCDC134, Q9H6E4]

below the threshold
below the threshold
below the threshold
3.74
below the threshold
below the threshold

Required: pKd, one value per binder below.
1. LPAHHNATRL [SLC34A1, Q06495;Q06495-1]
2. RRLPGKETMA [GRIK2, Q13002]
3. PLSPEQPTKL [TRIM50, Q86XT4]

1. 4.31
2. below the threshold
3. 3.61

Data provenance: paper PMC9482650
